Measured Papp values are reported for all entries that follow.
# Tested on: Caco-2
# measurement-protocol: Apparent permeability from apical to basolateral side in human Caco2 cells at pH 7.4
# Format: ADME, cell-based
# condition-context: Caco-2, pH 7.4
Remember to quote the unit after the number.

If you can, please state the reported Papp value of C[S+]([O-])Cc1ccc(C(=O)Nc2nccnc2C(=O)NCC2CCC2)c2ccccc12 (stereo in doubt; 18f) .
20 ×10⁻⁶ cm/s

Give the measured Papp of C[S+]([O-])Cc1ccc(C(=O)Nc2nccnc2C(=O)NCC2CCC2)c2ccccc12 (single isomer, unassigned) .
9 ×10⁻⁶ cm/s

* * *

# assay-target: UniProt:P21554
# Sequence (P21554 whole entry): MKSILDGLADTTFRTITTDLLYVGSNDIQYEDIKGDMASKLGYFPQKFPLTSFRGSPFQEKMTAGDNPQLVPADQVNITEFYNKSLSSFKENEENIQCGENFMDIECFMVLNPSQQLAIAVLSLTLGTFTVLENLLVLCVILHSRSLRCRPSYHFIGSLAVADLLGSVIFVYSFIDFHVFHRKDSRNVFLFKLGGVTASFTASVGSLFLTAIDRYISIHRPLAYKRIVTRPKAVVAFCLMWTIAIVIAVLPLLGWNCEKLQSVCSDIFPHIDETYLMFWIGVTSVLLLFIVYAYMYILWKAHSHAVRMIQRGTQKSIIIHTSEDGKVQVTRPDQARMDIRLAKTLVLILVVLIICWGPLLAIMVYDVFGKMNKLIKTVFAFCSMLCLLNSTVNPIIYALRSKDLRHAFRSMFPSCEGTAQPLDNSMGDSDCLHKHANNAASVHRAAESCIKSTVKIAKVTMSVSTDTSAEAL
# measurement-protocol: Agonist activity at human CB1 receptor expressed in HEK293S cell membranes after 1 hr by GTPgamma[35S] binding assay relative to WIN 55,212-2
measured-property: Emax (%)
I only need the number, in %, no unit after it.

C[S+]([O-])Cc1ccc(C(=O)Nc2ccc(OCCOCCO)nc2C(=O)NCC2CCC2)c2ccccc12 (centres undefined) ... 120
COc1ccc(NC(=O)c2ccnc3ccccc23)c(C(=O)NCC2CCC2)n1 ... 51
C[S@@+]([O-])Cc1ccc(C(=O)Nc2cccnc2C(=O)NCC2CCOCC2)c2ccccc12 ... 100

Could you tell me which Emax is on file for COc1ccc(NC(=O)c2ccc(Cn3ccnn3)c3ccccc23)c(C(=O)NCC2CCCCC2)n1 ?
57

Could you tell me which Emax is on file for O=C(NCC1CCCCC1)c1nccnc1NC(=O)c1cccc2ccccc12 ?
120

// Emax lookup, key: COc1ccc(NC(=O)c2ccc(Cn3ccnn3)c3ccccc23)c(C(=O)NCC2CCC2)n1
54

* * *

# measurement-protocol: Lipophilicity, log D of the compound
# condition-context: octanol/water
measured-property: logD
The response must contain the number and no unit.

The cases that follow already have their logD on record.
O=C(NCC1CCC1)c1ncccc1NC(=O)c1ccc(Cn2ccnn2)c2ccccc12 ... 5.3
COc1ccc(NC(=O)c2ccnc3ccccc23)c(C(=O)NCC2CCC2)n1 ... 5.9
C[S+]([O-])Cc1ccc(C(=O)Nc2nccnc2C(=O)NCC2CCC2)c2ccccc12 (single isomer, unassigned) ... 2.7
O=C(Nc1cccnc1C(=O)NCC1CCOCC1)c1ccc2ncsc2c1 ... 3.5
O=C(Nc1cccnc1C(=O)NCC1CCOCC1)c1cccc2c1OCCO2 ... 3.8

Fill in the blank: the reported logD of Cc1c(C(=O)c2cccc3ccccc23)c2cccc3c2n1[C@H](CN1CCOCC1)CO3 is ____.
5.2

Would you mind telling me what logD value was observed for COc1ccc(NC(=O)c2ccc(Cn3ccnn3)c3ccccc23)c(C(=O)NCC2CCOCC2)n1 ?
4.2

Need logD of O=C(NCC1CCCCC1)c1cc(Cl)ccc1NC(=O)c1cccc2ccccc12 , thanks.
7.8

Can you share its logD? I mean this compound: O=C(NCC1CCOCC1)c1ncccc1NC(=O)c1cccc2nccnc12
2.5

Need logD of O=C(NCC1CCCCC1)c1cccnc1NC(=O)c1cccc2ccccc12 , thanks.
4.7

* * *

In what follows, each item is paired with its IC50 for UniProtKB P34972.
Sequence (P34972 whole entry): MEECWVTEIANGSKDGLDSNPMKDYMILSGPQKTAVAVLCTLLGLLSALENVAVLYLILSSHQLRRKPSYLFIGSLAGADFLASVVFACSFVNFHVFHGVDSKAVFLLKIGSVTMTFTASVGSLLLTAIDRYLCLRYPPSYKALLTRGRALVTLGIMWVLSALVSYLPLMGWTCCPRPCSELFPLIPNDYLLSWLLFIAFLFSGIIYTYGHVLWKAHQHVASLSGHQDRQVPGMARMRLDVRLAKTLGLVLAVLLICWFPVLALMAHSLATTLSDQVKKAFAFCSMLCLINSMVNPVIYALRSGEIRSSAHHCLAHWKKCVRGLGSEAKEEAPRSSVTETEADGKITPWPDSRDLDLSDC
The figure you give is taken to be in nM; do not add the unit.

API: value(readout= IC50, system= UniProtKB P34972, query= O=C(NCC1CCCCC1)c1cnccc1NC(=O)c1cccc2ccccc12 )
9000

# get_value(readout= IC50, system= UniProtKB P34972) for O=C(NCC1CCC1)c1ncccc1NC(=O)c1ccc(Cn2ccnc2)c2ccccc12
330

Form: Entry = COCc1ccc(C(=O)Nc2cccnc2C(=O)NCC2CCC2)c2ccccc12 | System = UniProtKB P34972 | IC50 = ____
19

Value wanted: IC50 (UniProtKB P34972) of entry O=C(NCC1CCC1)c1ncccc1NC(=O)c1ccc(Cn2ccnn2)c2ccccc12
65

Give the reported IC50 for O=C(NCC1CCOCC1)c1ncccc1NC(=O)c1ccc(Cn2ccnn2)c2ccccc12 (system: UniProtKB P34972).
1200

Return IC50 measured with UniProtKB P34972 given this molecule: O=C(NCC1CCC1)c1ncccc1NC(=O)c1ccnc2ccccc12
82

# returns recorded IC50 (system: UniProtKB P34972) for COc1ccc(NC(=O)c2ccnc3ccccc23)c(C(=O)NCC2CCC2)n1
100

Values were extracted from ChEMBL document CHEMBL2311293.
